Biological target: DNA topoisomerase 1 (Homo sapiens)
Sequence (whole entry): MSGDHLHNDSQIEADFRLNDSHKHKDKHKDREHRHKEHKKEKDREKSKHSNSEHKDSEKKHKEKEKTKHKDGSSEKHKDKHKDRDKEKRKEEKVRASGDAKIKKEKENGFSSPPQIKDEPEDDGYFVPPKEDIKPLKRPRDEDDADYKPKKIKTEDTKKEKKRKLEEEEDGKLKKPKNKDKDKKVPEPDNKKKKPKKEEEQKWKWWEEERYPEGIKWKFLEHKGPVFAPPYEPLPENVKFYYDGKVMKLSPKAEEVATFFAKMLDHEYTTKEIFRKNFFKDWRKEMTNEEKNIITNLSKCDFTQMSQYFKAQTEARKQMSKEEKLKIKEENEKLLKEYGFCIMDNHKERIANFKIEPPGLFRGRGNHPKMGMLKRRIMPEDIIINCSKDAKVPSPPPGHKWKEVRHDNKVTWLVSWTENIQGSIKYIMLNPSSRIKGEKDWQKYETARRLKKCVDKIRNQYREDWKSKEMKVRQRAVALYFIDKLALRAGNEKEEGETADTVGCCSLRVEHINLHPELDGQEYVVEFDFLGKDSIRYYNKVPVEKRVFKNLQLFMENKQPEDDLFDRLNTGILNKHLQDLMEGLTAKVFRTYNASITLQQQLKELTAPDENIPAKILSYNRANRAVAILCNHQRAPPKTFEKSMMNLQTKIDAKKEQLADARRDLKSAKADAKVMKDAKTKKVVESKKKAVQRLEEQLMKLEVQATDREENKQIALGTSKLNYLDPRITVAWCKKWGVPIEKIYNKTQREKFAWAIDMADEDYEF
Assay: Poison activity at recombinant human TOP1B expressed in yeast TopI null strain (RS190) assessed as increase in nicked plasmid DNA at 100 uM using supercoiled pUC19 plasmid DNA as substrate by agarose gel electrophoresis analysis
Active and inactive are the calls of the source. The rule behind the calls is not given here.
quantity_name: Activity

{"molecule": "Cc1ccc(S(=O)(=O)N2C(=O)[C@H]3[C@H](c4ccccc4)c4ncccc4N[C@@H]3c3ccccc32)cc1 (relative stereo)", "result_value": "Active"}
{"molecule": "Cc1ccc(S(=O)(=O)N2C[C@H]3[C@H](c4ccccc4)c4ncccc4N[C@@H]3c3ccccc32)cc1 (relative stereo)", "result_value": "Active"}
{"molecule": "CC[C@@]1(O)C(=O)OCc2c1cc1n(c2=O)Cc2cc3ccccc3nc2-1 [CAMPTOTHECIN]", "result_value": "Active"}
{"molecule": "Cc1ccc(S(=O)(=O)N2Cc3c(nc4cccnc4c3-c3ccccc3)-c3ccccc32)cc1", "result_value": "Active"}

Cited source: ChEMBL document CHEMBL4765287
